Listing: soluble fraction (log2) of selected sequences
EXPERIMENT NOTES: soluble fraction after stress (log2 fold change); higher = more stays soluble; pooled small domains, quantitative proteomics
CONDITION SUMMARY: stress: 50 degC
Write the number on its own, no unit after it.

HMNPIEAQIEELKNKDQKTAYQALKHLLAISETRAEVSYYFDRFVALLQDPQSYVRTRGLLLIGA 0.271
HMSFNNHYEILQVQPSADREVIEAAAKALLKKHHPDLGGRNTITSHIVQAKKVLTDTSQRADFDARLRERL -0.0959
HMDKFTYVVKKEDEQYQIKDILRHNFTFSSRLRKKLKQNNSIFLNGAETVGWATPKEGDIISVRLP -0.433
HMFPELSEEAKVIVDALSKENDQQLNVLIANTGMAVGTMQAKLFELEMQGVVKPLAGSVYHLM -0.0727

(Q) Kindly indicate its recorded soluble fraction (log2). Item: HMGKINEIVANNIAILRKKNRLSLEELGKLSGVSKSMLALIEKGDGNPTLGILWKIANGLGVPFDELTRRP
(A) -0.0928

(Q) State its soluble fraction (log2) for this sequence: HMSNEITVPDLSGMSLEELETILSDRSLSYEIIDSIYNSTAKKGTVSSQDPLPDAKVKSGRTIYITVVSKL
(A) -1.5

(Q) Report soluble fraction (log2) for HMSEKELTDLIERIKERRLKLEMSYQDLSDATGISKSTLQRYETGYIKKVPINQIEILAKALHTTPSYLMG
(A) -0.238

----------
EXPERIMENT NOTES: soluble fraction after stress (log2 fold change); higher = more stays soluble; pooled small domains, quantitative proteomics
CONDITION SUMMARY: stress: 50 degC
PROPERTY NAME: soluble fraction (log2)
Reply briefly: the number, and no unit.

HMAGLYSLLLVELPMERLPEDLPAIKAAWLKTGDTEAFKVALQAMSSRGWTIAVPGKHRDTQMTQL 0.35
HMVTDVDYSTFLSQVEEGKVESVTIEDGEILFKGKDENGEARWYITGEMNDPNLVERLKDKVPSFNAPA 0.0853
HMTVVIKVQASQLESWKSSAGTEIKAKLIAVEDEKTYLFVTETGKTIRATAAQLDESSVSRARKLAGL -1.03

Then there is this sequence:
(Q) Specify reported soluble fraction (log2) for the sequence shown: HMAASGTVNSGGDPLRVRADPNTSSQILTKLSDGTQVEVLEQAENGWYKIAHEGISGFVSGEYLVVH
(A) 0.133

----------
Reported soluble fraction (log2) values for the following sequences.
EXPERIMENT NOTES: soluble fraction after stress (log2 fold change); higher = more stays soluble; pooled small domains, quantitative proteomics
CONDITION SUMMARY: stress: 50 degC
Please reply with the value in numeric form only.

Study these solved cases before continuing.
HMKQPVPDEIYFKRLANATEALGRYPRASERKKFGLNMSKRRYPTLTDFINKAIELGYVEDFR -0.373
HMLGVLEYYNNGQKKSERTFKGGMQIYTEWYENGQMKAEERKWIDQLGSLKFLNLLSTEWDENGNEISRME -1.34
HMRIYFSPSEIGFYHESDKQAYLLAGTWPNDLLEISEKWFLYLLEGQQKGKVITVNDYDQPVLVD -3.31
HMSSKIKYSEFITMLDKGEVESVVLKSDTLTITLKHGTGVAAQTKTTTLMEDLSELTKRLEKAGIKDFDK 0.0396
HMTIRIPEEEYLTRAKRAAQMTAERGLDALFLFGSEGDFQNVRYFTSVTPIWERLGVVITASGKAAMLTGP -0.0521
HMTYGYFELKAKNLDSLKQFLKGIAQVESIEEENNGLKVFLKNELESEELSEKLAEAKIFVSHLAKKK 0.0782
HMAKVSVNIILKDGVDQTTFVNDVTSNTEVDLKNQLISLPQMVVLSVEEDYINTLKSHSSISILELDE -0.00499
HMTSLTSDEEQIINVLRAEESVYINALATKSKIPLQKLLGLLIQLEFKGLIHSLPGSHYKIV -0.138
HMSSSLDQLTVREREILAQVSRGLSNKAIARELGISHDTVKLHVRHILSKLGFSSRVEAAVFAIEHRIG -1.72
HMITLYIHNLEEVGKRLDHYLVSNLDDHSRSQIQSWIRSGSILVNDRSVKTGYSLELNDQILINPPK -2.63

Now consider the entry below.
(Q) Tell me soluble fraction (log2) reported for HMTNVIPKAMAPFNGSTIIADGIKNIKDHIDNLYITVGYKGATLSEHVINKGVSAVFNTTGKGNAWWVYN
(A) 0.0606

----------
EXPERIMENT NOTES: soluble fraction after stress (log2 fold change); higher = more stays soluble; pooled small domains, quantitative proteomics
CONDITION SUMMARY: stress: 50 degC
Respond with Y for soluble fraction (log2) values of -0.03 and above, N for values below.

Below, 3 sequences whose answers are already recorded.
HMSEQLKQIAERIKELRNIAGLGEEELAAKLDIPVDTYREYESGNVDIPVSFLYKISGMFNVELTAIL Y
HMTPAKQVSAKAERWIDQLGSSDWEKREEAAAELKKLGGAAKSALEKALKNADPEVASKAEELLEALES Y
HMDIFFEKIFNILIGYNQNQENLISEKSILNFHLSHKSNSNFEYIPDEKTPKYIWKYLSNYNLLE N

(Q) Answer whether soluble fraction (log2) of HMFYLPEPLTEQELRILGMLLDGRSNPEIAAELFIAVGTAKWHVHNILQKLGVANRAQAIVKAHELGLT is greater than or equal to -0.03.
(A) N

(Q) Is reported soluble fraction (log2) greater than or equal to -0.03 here: HMGYDLLFQQALGFHEQGRLNEAENIYRQILETAPNNPDILNLLGLIAQQKGLHAQAVDYFYQAIRL
(A) N

(Q) Record HMQENFYMILESEERRVLDVLVADQPESVATFLKLVSPFPNYKIILEHINEKALDFYEETVI ; criterion: soluble fraction (log2) no lower than -0.03. Met?
(A) N

(Q) Exam item: decide whether the reported soluble fraction (log2) for HMGQKMLTIELQEKVNKMPDNLASYDLKLSADGMSLIYKYSLKSERTGITALLQELKNAGLVMRDLKTEQ is at least -0.03.
(A) Y

----------
EXPERIMENT NOTES: soluble fraction after stress (log2 fold change); higher = more stays soluble; pooled small domains, quantitative proteomics
CONDITION SUMMARY: stress: 50 degC
Catalogue of soluble fraction (log2) values

HMHEAILNQIRNEELMLYIGELSDAQQDVILLKYFHQMTFKEIAESFSIPISTVKTRHTAALKKLSTLWK -0.16
HMGKTTQEIEERSSTSTLTLTQTPKEIISVQGKKSDQSFFTNIQYTQNGKVIVPKQTGIYDTIKVVFTVSL -1.2

Consider the additional sequence presented here.
(Q) Give the measured soluble fraction (log2) for HMDVSASEVGLTGRQTDVLSLMVKGRSNRDIAELLGLSEGTVKIHITAIFKALGVASRTQALVAAARLGLK
(A) -0.156

----------
EXPERIMENT NOTES: soluble fraction after stress (log2 fold change); higher = more stays soluble; pooled small domains, quantitative proteomics
CONDITION SUMMARY: stress: 50 degC
So basically, the class depends on measured soluble fraction (log2), and the ranges are 0 (below -0.4), 1 (-0.4 to below 0.06), 2 (0.06 or more)

HMQISDSSLIAKTVATVILENPEAVSDYLGGKHSVVRFMVGQIMKKTQGKANPKMATEMLETALNDL 0

(Q) State the class of the sequence shown: HMDREQLELYVGEVRVLQVGELRRIAIGNGKVLQASALDRGQLLLIPEAPGQSVLYLWTRDGTERHLSISV
(A) 1

(Q) Tag the class for HMLADRANMAPAALRQIMTAIDGGNVTPKQIESATGMAHATVARALRKMLDDGLIANDGKGRYTVLT
(A) 1

(Q) Which class does HMPPNHADLKSSGLKATLPRLKILEIFQNSQVRHLSAEDVYKLLLAENLDVGLATVYRVLTQFEQAGL fall in?
(A) 0

(Q) Kindly identify the class of HMARKTIFHSLLGELEQRIGRLPAGTILPAEQALADEYGVSKPTLRRALAELAEHGLITKENGIGSVVI .
(A) 0

(Q) Hey, which category is HMEFFIIDHNGQQAGPFSFDQLVQKGISPETLVWKQGMADWNPAWKVEELKAVLEAVEANQSNQKAQ in, do you know?
(A) 2

----------
EXPERIMENT NOTES: soluble fraction after stress (log2 fold change); higher = more stays soluble; pooled small domains, quantitative proteomics
CONDITION SUMMARY: stress: 50 degC
Record 1 whenever soluble fraction (log2) is at -1 or higher; record -1 when lower.

HMDELIKQVANYIINNRATINETAGAFGKSVSSIKKYINDADKLQRIDFELYQKVKEVQKIVELNGQI 1
HMTGIKISVDRLQIGNYVKLPLNWKDHPFLFSSFAIKSQEEIDLIRRLGLKQVIMFPDKSSMPPKPV -1
HMKIKLQATEQQRKTLDELYVQLKKLEPTSKEDLSLLYRLENPHLVSKQEAQGLISIAIGRVGSLAIEQQ 1

(Q) Please tell me: is the sequence HMIDFTHEDIERLWNAIVHYVPERQKSDMAIDFIKSLEDIGVEHDEIKASAEYDPKLEEAINTVY at or over -1 in terms of soluble fraction (log2)?
(A) 1

(Q) Is it the case that HMHQAADFAGFITFNKDGVEQFSFGKYKNQTVVSVLEKDPGYYSWIQNADFPLYTKKILTAIRLAM has soluble fraction (log2) reaching or exceeding -1?
(A) 1

(Q) Decide: soluble fraction (log2) of HMHEYSDIEHRILDAAREVFIRKGYDSATMGDIALLAGMSRTSVNYYFRNKERLFEAIFEEII >= -1?
(A) -1

(Q) Reported soluble fraction (log2) reaches at least -1 for HMIYNSGTTDSRGEAIVGGYLVTVTDTDTKDPVANAAVTLHKDNSISIRLPNSRLLDYADQTTVTVQLV ?
(A) 1
